Test system: Streptococcus pneumoniae IMC B-0919 (PRSP)
Assay explanation: Antimicrobial activity test (MIC), clinical isolate IMC B-0919
Format: cell-based
Condition label: Streptococcus pneumoniae IMC B-0919, PRSP
Attribute measured: MIC (µg/mL)

CCC1OC(=O)CCC(C)C(OC2OC(C)CC(N(C)C)C2O)C(CC=O)CC(C)C(=O)C=CC(C)=CC1COC(=O)NCc1ccc(OC)cc1 (stereo not shown) [MKT-1011] = 0.1
CCC1OC(=O)CCC(C)C(OC2OC(C)CC(N(C)C)C2O)C(CC=O)CC(C)C(=O)C=CC(C)=CC1CN1CCC(CCO)CC1 (stereo not shown) [MKT-6113] = 0.78
CCC1OC(=O)CCC(C)C(OC2OC(C)CC(N(C)C)C2O)C(CC=O)CC(C)C(=O)C=CC(C)=CC1CNC(=O)Cc1cccnc1 (stereo not shown) [MKT-3216] = 0.10
CC=CC=CC(=O)OCC1C=C(C)C=CC(=O)C(C)CC(CC=O)C(OC2OC(C)CC(N(C)C)C2O)C(C)CCC(=O)OC1CC (stereo not shown) [MKT-2110] = 0.05
CCC1OC(=O)CCC(C)C(OC2OC(C)CC(N(C)C)C2O)C(CC=O)CC(C)C(=O)C=CC(C)=CC1CN(C)Cc1ccccc1 (stereo not shown) [MKT-3002] = 0.1
CCC1OC(=O)CCC(C)C(OC2OC(C)CC(N(C)C)C2O)C(CC=O)CC(C)C(=O)C=CC(C)=CC1CCl (stereo not shown) [MKT-3007] = 0.20

* * *

System: Streptococcus pneumoniae IMC B-1231 (PRSP)
Assay explanation: Antimicrobial activity test (MIC), clinical isolate IMC B-1231
Format: cell-based
Condition label: PRSP clinical isolate IMC B-1231
Attribute measured: MIC (µg/mL)

CCC1OC(=O)CCC(C)C(OC2OC(C)CC(N(C)C)C2O)C(CC=O)CC(C)C(=O)C=CC(C)=CC1CN (stereo not drawn) = 50
CCC1OC(=O)CCC(C)C(OC2OC(C)CC(N(C)C)C2O)C(CC=O)CC(C)C(=O)C=CC(C)=CC1CNC(=O)c1ccccc1 (stereo not drawn) = 0.05
CCC1OC(=O)CCC(C)C(OC2OC(C)CC(N(C)C)C2O)C(CC=O)CC(C)C(=O)C=CC(C)=CC1CSc1ccccn1 (stereo not drawn) = 50

* * *

Test system: Streptococcus pneumoniae IMC B-1235 (PRSP)
Assay explanation: Antimicrobial activity test (MIC), clinical isolate IMC B-1235
Type: cell-based
Condition label: PRSP clinical isolate IMC B-1235
Attribute measured: MIC (µg/mL)

CCC1OC(=O)CCC(C)C(OC2OC(C)CC(N(C)C)C2O)C(CC=O)CC(C)C(=O)C=CC(C)=CC1CN(C)CCc1ccc(OC)c(OC)c1 (stereo not drawn) [MKT-6104] = 25
CCC1OC(=O)CCC(C)C(OC2OC(C)CC(N(C)C)C2O)C(CC=O)CC(C)C(=O)C=CC(C)=CC1CSc1ncccn1 (stereo not drawn) [MKT-3802] = 12.5
CCC1OC(=O)CCC(C)C(OC2OC(C)CC(N(C)C)C2O)C(CC=O)CC(C)C(=O)C=CC(C)=CC1CNC(C)=O (stereo not drawn) [MKT-3201] = 12.5

Where do these numbers come from? They come from patent US8053418B2.
